Values were extracted from paper PMC6273168.

Let's look at some compounds and their measured melting point.

Consider the reported melting point for these compounds:
# compound, melting point
records = [
    ("O=C(Nc1ccc(-c2nc3c(c(N4CCOCC4)n2)CSCC3)cc1)c1cc(-c2ccc(C(F)(F)F)cc2)ncn1 [Compound 13c]", "244.2 to 245.8 °C"),
    ("COc1ccc(-c2cc(C(=O)Nc3ccc(-c4nc5c(c(N6CCOCC6)n4)CSCC5)cc3)ncn2)cc1 [Compound 13b]", "210 to 212.7 °C"),
    ("O=C(Nc1ccc(-c2nc3c(c(N4CCOCC4)n2)CSCC3)cc1)c1cc(-c2ccc(C(F)(F)F)cc2)ccn1 [Compound 11d]", "229.3 to 231.7 °C"),
    ("O=C(Nc1ccc(-c2nc3c(c(N4CCOCC4)n2)CSCC3)cc1)c1cc(-c2ccc(F)cc2)ncn1 [Compound 13d]", "237 to 239.3 °C"),
    ("O=C(Nc1ccc(-c2nc3c(c(N4CCOCC4)n2)CS(=O)(=O)CC3)cc1)c1cc(-c2ccc(F)cc2)ncn1 [Compound 14d]", "> 300 °C"),
    ("O=C(Nc1ccc(-c2nc3c(c(N4CCOCC4)n2)CSCC3)cc1)c1cc(-c2ccc(F)cc2)ccn1 [Compound 11f]", "248.1 to 249.6 °C"),
]

Could you now look at the following compound, please?
IN: # lookup: melting point of O=C(Nc1ccc(-c2nc3c(c(N4CCOCC4)n2)CSCC3)cc1)c1cc(-c2ccc(Cl)cc2)ncn1 [Compound 13f]
OUT: 281.8 to 285 °C

###

# System: PC-3 (human prostatic cancer) cell line
# test_name: MTT cell proliferation (cytotoxicity) assay, PC-3
# Assay type: cell-based
# protocol_conditions: Homo sapiens, 72 h, average of two separate determinations, Table 1
Values of IC50 strictly less than 60 µM map to criterion met, and values of at least 60 µM map to criterion not met.

# compound, experimental_system, class_assignment
measured = [
    ("O=C(Nc1ccc(-c2nc3c(c(N4CCOCC4)n2)CS(=O)(=O)CC3)cc1)c1cc(-c2ccccc2)ccn1 [Compound 12a]", "PC-3 (human prostatic cancer) cell line", "criterion not met"),
    ("Cc1ccc(-c2ccnc(C(=O)Nc3ccc(-c4nc5c(c(N6CCOCC6)n4)CS(=O)(=O)CC5)cc3)c2)cc1 [Compound 12g]", "PC-3 (human prostatic cancer) cell line", "criterion not met"),
    ("CCc1ccc(-c2ccnc(C(=O)Nc3ccc(-c4nc5c(c(N6CCOCC6)n4)CS(=O)(=O)CC5)cc3)c2)cc1 [Compound 12h]", "PC-3 (human prostatic cancer) cell line", "criterion met"),
]

IN: Regarding COc1ccc(-c2ccnc(C(=O)Nc3ccc(-c4nc5c(c(N6CCOCC6)n4)CSCC5)cc3)c2)cc1 [Compound 11i] , kindly confirm whether its IC50 is beneath 60 µM.
OUT: criterion not met

IN: What do you get for O=C(Nc1ccc(-c2nc3c(c(N4CCOCC4)n2)CSCC3)cc1)c1cc(-c2ccc(Cl)cc2)ccn1 [Compound 11e] ?
OUT: criterion met

IN: Entry CS(=O)(=O)N1CCN(Cc2cc3nc(-c4cccc5[nH]ncc45)nc(N4CCOCC4)c3s2)CC1 [GDC-0941, reference compound] please
OUT: criterion met

###

Recorded melting point values for a group of compounds are listed next.

# compound, readout_value
data = [
    ("CCc1ccc(-c2ccnc(C(=O)Nc3ccc(-c4nc5c(c(N6CCOCC6)n4)CS(=O)(=O)CC5)cc3)c2)cc1 [Compound 12h]", "276.8 to 279.1 °C"),
    ("O=C(Nc1ccc(-c2nc3c(c(N4CCOCC4)n2)CSCC3)cc1)c1cc(-c2ccc(Br)cc2)ncn1 [Compound 13e]", "251.8 to 255 °C"),
    ("COc1ccc(-c2ccnc(C(=O)Nc3ccc(-c4nc5c(c(N6CCOCC6)n4)CSCC5)cc3)c2)cc1 [Compound 11i]", "233.6 to 235.1 °C"),
    ("O=C(Nc1ccc(-c2nc3c(c(N4CCOCC4)n2)CS(=O)(=O)CC3)cc1)c1cc(-c2cccc(F)c2)ccn1 [Compound 12b]", "281.5 to 283.8 °C"),
    ("O=C(Nc1ccc(-c2nc3c(c(N4CCOCC4)n2)CS(=O)(=O)CC3)cc1)c1cc(-c2ccc(Cl)cc2)ncn1 [Compound 14f]", "> 300 °C"),
    ("O=C(Nc1ccc(-c2nc3c(c(N4CCOCC4)n2)CS(=O)(=O)CC3)cc1)c1cc(-c2ccc(Br)cc2)ncn1 [Compound 14e]", "> 300 °C"),
]

IN: Entry O=C(Nc1ccc(-c2nc3c(c(N4CCOCC4)n2)CS(=O)(=O)CC3)cc1)c1cc(-c2ccc(F)cc2F)ccn1 [Compound 12c] : reported melting point = ?
OUT: 269 to 272.6 °C

IN: Now the compound COc1ccc(-c2ccnc(C(=O)Nc3ccc(-c4nc5c(c(N6CCOCC6)n4)CS(=O)(=O)CC5)cc3)c2)cc1 [Compound 12i]
OUT: 289 to 292.1 °C

IN: Moving on to COc1ccc(-c2cc(C(=O)Nc3ccc(-c4nc5c(c(N6CCOCC6)n4)CS(=O)(=O)CC5)cc3)ncn2)cc1 [Compound 14b]
OUT: 277 to 279.5 °C

IN: Would you mind doing O=C(Nc1ccc(-c2nc3c(c(N4CCOCC4)n2)CS(=O)(=O)CC3)cc1)c1cc(-c2ccc(C(F)(F)F)cc2)ncn1 [Compound 14c] as well?
OUT: 287.1 to 289.2 °C

IN: Entry to check: Cc1ccc(-c2ccnc(C(=O)Nc3ccc(-c4nc5c(c(N6CCOCC6)n4)CS(=O)(=O)CC5)cc3)c2)cc1 [Compound 12g]
OUT: 290.2 to 293.1 °C

IN: What do you have for O=C(Nc1ccc(-c2nc3c(c(N4CCOCC4)n2)CSCC3)cc1)c1cc(-c2ccc(F)cc2F)ccn1 [Compound 11c] ?
OUT: 235 to 236.7 °C

IN: Subsequent entry: O=C(Nc1ccc(-c2nc3c(c(N4CCOCC4)n2)CS(=O)(=O)CC3)cc1)c1cc(-c2ccc(F)cc2)ccn1 [Compound 12f]
OUT: > 300 °C

IN: Next entry: O=C(Nc1ccc(-c2nc3c(c(N4CCOCC4)n2)CS(=O)(=O)CC3)cc1)c1cc(-c2ccc(Cl)cc2)ccn1 [Compound 12e]
OUT: 266.8 to 268.8 °C
